# EXPERIMENTAL TARGET: T1, Anti-CD28 Fab (SEQ ID NOs: 202, 203)
# T1 construct: biotinylated and captured on neutravidin coated plates in the phage ELISA
# T1 sequence (VH, as listed by the source, chain 1 of 2): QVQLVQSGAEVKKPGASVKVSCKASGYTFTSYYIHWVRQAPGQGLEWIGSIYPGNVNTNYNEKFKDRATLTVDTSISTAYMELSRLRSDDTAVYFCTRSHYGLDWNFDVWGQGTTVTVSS
# T1 sequence (VL, as listed by the source, chain 2 of 2): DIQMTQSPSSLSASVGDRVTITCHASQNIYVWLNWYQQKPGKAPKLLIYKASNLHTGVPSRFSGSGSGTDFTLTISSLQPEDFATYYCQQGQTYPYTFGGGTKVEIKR
# EXPERIMENTAL DETAILS: phage ELISA on captured biotinylated Fab;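 also: wells preblocked with or without CD28 antigen, then clonal phage supernatant added briefly, washed, and bound phage read out by ELISA using HRP-linked anti-M13 antibody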
Assign Anti-CD28 Fab signal to each entry below.
Please reply with the value in numeric form only.

Query: What value of measured Anti-CD28 Fab signal is listed for YCEGHSLEYIGKCL [Phage-186] ?
Result: 2.14

Query: What value of measured Anti-CD28 Fab signal is listed for YCEGHSLEYMGKCL [Phage-253] ?
Result: 2.02

Query: What value of measured Anti-CD28 Fab signal is listed for YCEGHAPEHMAKCL [Phage-214] ?
Result: 2.08

Query: What value of measured Anti-CD28 Fab signal is listed for YCDGHLPAYMAKCL [Phage-222] ?
Result: 2.06

Query: What value of measured Anti-CD28 Fab signal is listed for YCAGHAPEYMQKCL [Phage-174] ?
Result: 2.16

Query: What value of measured Anti-CD28 Fab signal is listed for YCEGHRAEYMEKCL [Phage-288] ?
Result: 1.93

Query: What value of measured Anti-CD28 Fab signal is listed for YCEGHSMEYMAKCL [Phage-295] ?
Result: 1.92

Query: What value of measured Anti-CD28 Fab signal is listed for YCDGHAPQYMGKCL [Phage-227] ?
Result: 2.06

Query: What value of measured Anti-CD28 Fab signal is listed for YCAGHIEEYMWKCL [Phage-230] ?
Result: 2.05

Query: What value of measured Anti-CD28 Fab signal is listed for YCDGHMPEYMEKCL [Phage-292] ?
Result: 1.93

Query: What value of measured Anti-CD28 Fab signal is listed for YCDGHSIEYRWKCL [Phage-162] ?
Result: 2.18

Query: What value of measured Anti-CD28 Fab signal is listed for YCDGHVPQYMAKCL [Phage-203] ?
Result: 2.1

Query: What value of measured Anti-CD28 Fab signal is listed for YCAGHLPEYMQKCL [Phage-182] ?
Result: 2.15

Query: What value of measured Anti-CD28 Fab signal is listed for YCMGHQPEYMQKCL [Phage-291] ?
Result: 1.93

Query: What value of measured Anti-CD28 Fab signal is listed for YCDGHSPIYMSKCL [Phage-260] ?
Result: 2

Query: What value of measured Anti-CD28 Fab signal is listed for YCEGHSPEYMSHCF [Phage-216] ?
Result: 2.08

Value source: patent US20260274955A1
